Where these numbers come from: paper PMC4774911

EXPERIMENTAL SYSTEM: PRKACB (Homo sapiens)
PROPERTY: IC50 (µM)

> print(dat)
                                   molecule  comparison.operator  endpoint.result
1  Cl.NCC1(c2nc(-c3ccc(Cl)c(O)c3)c(-c3ccncc3)[nH]2)CCCCC1                    =             0.89
2  CN(C)CC(O)COc1ccc(Nc2ncc([N+](=O)[O-])c(Nc3ccccc3O)n2)cc1.O=C(O)C(F)(F)F (stereo not drawn)                    >               20
3  CN1CCN(c2ccc(Nc3ncc(C#N)c(Nc4ccccc4C(N)=O)n3)cc2)CC1.Cl                    =              6.3
